tested on: A498 renal; assay: NCI-60 one-dose screen, 48 h; conditions: 10 µM unless noted
About 83,000 compounds went through this panel and 20% of them were active in at least one assay; those are over-represented in the sample as a whole. Calls of active or inactive are those of the source. How the source made its calls: active means growth percent below 10; inactive means the rest.
Choose the fitting class; nothing outside active, inactive is accepted.

molecule	cat
C=CCn1c(SCC(=O)Nc2ccc(C(=O)/C=C/c3cc(OC)c(OC)c(OC)c3)cc2)nnc1-c1ccc(OC)cc1	active
Cc1ccn2cc(Cc3cc(=O)oc4c3ccc3ccccc34)c(=O)nc2c1	inactive
COc1cc2c(cc1OC)-c1c(oc3c4c(ccc3c1=O)OC(C)(C)C=C4)CO2	inactive
CCOc1ccc(-n2c(-c3cc(OC)c(OC)c(OC)c3)nnc2-c2ccc(OC)cc2N)cc1	inactive
Cc1ccc(/C=C2/C(=O)Nc3cc(Cl)c(-c4csc(N)n4)cc32)cc1	inactive

Query: What call does the record list for `CC(=O)Oc1ccc(C(OC(C)=O)OC(C)=O)cc1` ?
Result: inactive

Query: What call does the record list for `O=C(Nc1ccc(F)cc1)Nc1ccc(Cl)c([N+](=O)[O-])c1` ?
Result: inactive

Query: What call does the record list for `COc1ccc(/C=C2\CS(=O)(=O)C/C(=C\c3ccc(OC)cc3)C2=O)cc1` ?
Result: inactive

Query: What call does the record list for `C=C1C(=O)O[C@H]2[C@H]1CC/C(COC(=O)c1ccc3ccccc3c1)=C\CC[C@@]1(C)O[C@@H]21` ?
Result: inactive

Query: What call does the record list for `C[C@]12CC[C@@H]3c4ccc(O)c(N)c4CC[C@H]3[C@@H]1CC[C@@H]2O` ?
Result: inactive

Query: What call does the record list for CCCCCCCCN(CCCCCCCC)CC(O)c1cc(-c2ccccc2)nc2ccc(OC)cc12 (stereo not given) ?
Result: inactive

---

system: UO-31 renal; test: NCI-60 one-dose screen, 48 h; conditions: 10 µM unless noted
About 83,000 compounds went through this panel and 20% of them were active in at least one assay; those are over-represented in the sample as a whole. The source made the active and inactive calls. Rule for the calls: active = growth percent below 10; inactive = the rest.
Choose the fitting class; nothing outside true for active, false for inactive is accepted.

compound	cat
COc1ccccc1NC(=O)COc1ccc(/C=C2/Oc3cc4occc4c(OC)c3C2=O)cc1OC	false

Query: What call does the record list for `COc1cc(/C=C/C(=O)c2ccc(Oc3ncnc4ccccc34)cc2)cc(OC)c1OC` ?
Result: false

Query: What call does the record list for `O=C(Nc1ccc(F)cc1)Nc1ccc(Cl)c([N+](=O)[O-])c1` ?
Result: true

Query: What call does the record list for `COc1ccc(C(=O)NC(=O)Nc2ccc3c(c2)NC(=O)/C3=C\c2[nH]c(C)c(C(=O)O)c2C)c(F)c1` ?
Result: false

Query: What call does the record list for `COc1ccc(-c2nn(-c3ccc(NC(=O)Nc4cc(C(F)(F)F)cc(C(F)(F)F)c4)cc3)cc2-c2ccncc2)cc1Cl` ?
Result: false

---

Test system: OVCAR-8 ovarian
Experiment: NCI-60 one-dose screen, 48 h
Conditions: 10 µM unless noted
Description: Growth inhibition of the OVCAR-8 human tumor cell line is measured as a screen for anti-cancer activity. Cells are grown in 96 well plates and exposed to the test compound for 48 hours. Compounds are tested at a single concentration, which is 10^-5 M for most compounds. The reported endpoint is percent growth (GI% or GIPRCNT), where numbers from 0 - 100% represent growth inhibition, and numbers from -100% - 0 represent cell death. For example, a value of 40 represents 60% growth inhibition. […]
About 83,000 compounds went through this panel and 20% of them were active in at least one assay; those are over-represented in the sample as a whole. Activity calls are given as the source filed them. The calls were made as follows: active = growth percent below 10; inactive = the rest.
Choose the fitting class; nothing outside yes (active), no (inactive) is accepted.

Sample answers from the record:
molecule	assayed_system	cat
CSc1nc(N)nc2c1ncn2C	OVCAR-8 ovarian	no
O=c1cc(Cl)[nH]c(=O)[nH]1	OVCAR-8 ovarian	no
C=C1C(=O)O[C@H]2[C@H]1CC/C(COC(=O)c1ccc(Br)cc1)=C\CC[C@@]1(C)O[C@@H]21	OVCAR-8 ovarian	yes

Shift focus to the following entry.
Query: What call does the record list for `CCc1ccc(C2=C/C(=C/c3ccc(Cl)cc3)C(=O)N2CCc2ccc(S(N)(=O)=O)cc2)cc1` ?
Result: no

---

system: OVCAR-8 ovarian; assay: NCI-60 one-dose screen, 48 h (100 = growth as untreated, 0 = no growth, -100 = all killed); details: 10 µM unless noted
About 83,000 compounds went through this panel and 20% of them were active in at least one assay; those are over-represented in the sample as a whole.
readout_label: growth (%)
Report only the number, with the unit % understood.

molecule	number
CN1CCN(Cn2nc(-c3cc(Cl)cc(Cl)c3Cl)n(/N=C/c3ccc(Cl)cc3)c2=S)CC1	93.5
COc1ccc(-c2nn(-c3ccc(NC(=O)c4ccc(Cl)c(C(F)(F)F)c4)cc3)cc2-c2ccncc2)cc1Cl	46.5
COc1cc(/C=C/C(=O)c2c(C)[n+]([O-])c3ccccc3[n+]2[O-])ccc1O	89.4

Query: Give the value of growth reported for the following: `Cl[C@@H]1CCO[C@H](c2cc3ccccc3c3ccccc23)C1`
Result: 98.9

---

Some compounds, each annotated with its measured growth.
system: M14 melanoma; assay: NCI-60 one-dose screen, 48 h (100 = growth as untreated, 0 = no growth, -100 = all killed); details: 10 µM unless noted
Compounds without any hit were thinned out: in the full panel of roughly 83,000, 20% have a hit.
Report only the number, with the unit % understood.

chemical_structure	number
C/C(=N\N=C1/SCC(=O)N1c1ccccc1)c1ccco1	176
Cc1cc(SCc2ccc(Cl)cc2Cl)nc(SCc2ccc(Cl)cc2Cl)n1	97.5
Clc1ccc2c(NCCNc3nc(Cl)nc4ccccc34)ccnc2c1	-89.1
CCCCCCCCCCCC(=O)OCCNC(=O)C[n+]1ccccc1	102
O=S(=O)(Nc1cccc2cc(OS(=O)(=O)c3ccccc3)ccc12)c1ccccc1	40.3

Query: Give the value of growth reported for the following: `O=C(Nc1ccc(-n2ccc3c(NC(=O)c4ccccc4)nccc32)cc1)Nc1ccc(Cl)c(Cl)c1`
Result: -69.8

Query: Give the value of growth reported for the following: `CCCCC(=O)Nc1nc2ccc(SCCC)cc2s1`
Result: 37.3

Query: Give the value of growth reported for the following: `COc1ccccc1NC(=O)COc1ccc(/C=C2/Oc3cc4occc4c(OC)c3C2=O)cc1OC`
Result: 106

Query: Give the value of growth reported for the following: `COc1cc2c(cc1OCCCCC(=O)Nc1ccc(-c3nc4ccccc4s3)cc1)N=C[C@@H]1CCCN1C2=O`
Result: -59.3

Query: Give the value of growth reported for the following: `CCc1cccc(C)c1NC(=O)c1sc2nc3c(cc2c1N)CCCCC3`
Result: 3.86

---

tested on: 786-0 renal; assay: NCI-60 one-dose screen, 48 h (100 = growth as untreated, 0 = no growth, -100 = all killed); settings: 10 µM unless noted
This is part of a sample that, as a whole, favours compounds with a hit. Of some 83,000 tested, about 20% had one in any assay.
Some compounds, each annotated with its measured growth.
Report only the number, with the unit % understood.

Example entries and their recorded answers appear below.
compound	number
COc1cc(/C=C2/Oc3cc4occc4c(OC)c3C2=O)ccc1OCC(=O)Nc1ccncc1	101
O=C(Nc1ccccc1F)Nc1ccccc1Cl	107

Query: Give the value of growth reported for the following: `C#CC(=O)/C=C/CCCCCCC#CC(=O)CCC(=O)C#CCCCCCC/C=C/C(=O)C#C`
Result: -46.9

Query: Give the value of growth reported for the following: `CC[C@H]1[C@@H]2C=C[C@@H]3[C@H]4C/C=C\C(=O)NCCC[C@@H]5NC(=O)/C(=C(O)/C=C/[C@@H]4C[C@@H]3[C@H]2C[C@H]1C)C5=O`
Result: -80.9

Query: Give the value of growth reported for the following: `CC(=O)Nc1ccc(OC(=O)c2ccccc2O)cc1`
Result: 107

Query: Give the value of growth reported for the following: `N#CC(C#N)=C(C#N)c1c[nH]c2ccccc12`
Result: 82.4

Query: Give the value of growth reported for the following: `O=C(NC(=S)Nc1ccc(Cl)cc1)c1ccccc1`
Result: 90.9

---

test system: RPMI-8226 leukemia; assay: NCI-60 one-dose screen, 48 h (100 = growth as untreated, 0 = no growth, -100 = all killed); details: 10 µM unless noted
Compounds without any hit were thinned out: in the full panel of roughly 83,000, 20% have a hit. Activity calls are given as the source filed them. Rule for the calls: active = growth percent below 10; inactive = the rest.
readout_label: growth

Example entries and their recorded answers appear below.
compound	readout_label	result
CC(C)CNCC(O)COc1ccc(C(C)(C)c2ccc(OCC(O)CNCC(C)C)cc2)cc1 (centres undefined)	growth	-9.88% (active)
O=C(COc1ccc(Cl)cc1)N1CCN(Cc2ccc3c(c2)OCO3)CC1	growth	88.7% (inactive)
O=C(O)c1cn(C2CC2)c2cc(N3CCN(C(=O)CSc4nc(NS(=O)(=O)c5ccccc5)cc(=O)[nH]4)CC3)c(F)cc2c1=O	growth	82.1% (inactive)
COc1cc(NC(C)CCCN2C(=O)c3ccccc3C2=O)c2nc(C)ccc2c1OC (centres undefined)	growth	70.1% (inactive)
CCCCCCCCCCCC(=O)OCCNC(=O)C[n+]1ccccc1	growth	100% (inactive)
OCc1cn(-c2ccc(Cl)cc2)nc1-c1ccc(O)cc1	growth	97.3% (inactive)
COc1ccc(NC(=O)Nc2ccc(-c3ccc(OC)c(OC)c3)nc2C)cc1	growth	83.8% (inactive)
O=C1/C(=C/c2cccc3cnccc23)Cc2cc(F)ccc21	growth	85.9% (inactive)
C=C1C(=O)O[C@H]2[C@H]1CC/C(COC(=O)OC/C1=C/CC[C@@]3(C)O[C@H]3[C@H]3OC(=O)[C@@H](CN(C)C)[C@@H]3CC1)=C\CC[C@@]1(C)O[C@@H]21	growth	-5.37% (active)
Nc1ncc(-c2ccc3ncnc(Nc4ccc(F)c(Cl)c4)c3c2)cn1	growth	50% (inactive)

Query: Give the value of growth reported for the following: `CC(=O)N[C@@H](CNC(=O)c1cc(NC(=O)c2cc(NC(=O)c3cc(NC(=O)c4nccn4C)cn3C)cn2C)cn1C)CC(=O)Nc1cn(C)c(C(=O)Nc2cc(C(=O)Nc3cc(C(=O)Nc4cc(C(=O)NCCCN(C)CCCNC(=O)c5cccc(C(=O)O)c5)n(C)c4)n(C)c3)n(C)c2)n1`
Result: 105% (inactive)

Query: Give the value of growth reported for the following: `COc1ccccc1S(=O)(=O)Nc1ccc2c3c(cc(-c4cnn(C5CC5)c4)nc13)C(=O)N2C`
Result: 10% (inactive)

Query: Give the value of growth reported for the following: `O=C(N/N=C/c1ccccc1O)c1ccccc1O`
Result: 37.4% (inactive)

Query: Give the value of growth reported for the following: `OCc1cnccc1NC12CC3CC(CC(C3)C1)C2`
Result: 96.8% (inactive)

Query: Give the value of growth reported for the following: `Nc1nccc(=S)[nH]1`
Result: 96.6% (inactive)

Query: Give the value of growth reported for the following: `O=c1nc(N2CCOCC2)oc2c(-c3cccc4ccccc34)cccc12`
Result: 96.1% (inactive)
